test_method_notes: in vivo
Parameters: species or system Wistar rats
stated_conditions: male, Wistar, rat, po, 1 mg/kg
value_kind: Cmax
Quick note: unit goes after the number.

Incoming: Quick one: Cmax of O=C(O)Cc1ccccc1Nc1c(Cl)cccc1Cl [Diclofenac-K] ?
Outgoing: 1260 ng/mL

* * *

test_method_notes: in vivo
Design: species or system Wistar rats
stated_conditions: male, Wistar, rat, po, 1 mg/kg
value_kind: Tmax
Quick note: unit goes after the number.

Incoming: Quick one: Tmax of O=C(O)Cc1ccccc1Nc1c(Cl)cccc1Cl [Diclofenac-K] ?
Outgoing: 15 min

Values were extracted from patent US20200022936A1.
